Experiment: Solubility in PBS
Assay type: physicochemical
Settings: read-out: solubility limitation
measure: solubility

• O=C1N=c2ccccc2=C1NNC1=NC(=O)/C(=C2/C(=O)Nc3ccccc32)S1 = 1000 µg/mL

----------
This document collects Kd values reported for PAN protein (Influenza A virus).
measure: Kd

• O=C1N=c2ccccc2=C1NNC1=NC(=O)/C(=C2/C(=O)Nc3ccccc32)S1 = 1100 nM
• CN(C)c1ccc(/C=C2\S/C(=N\N=C3\C(=O)Nc4ccccc43)NC2=O)cc1 = 1300 nM

----------
Test system: influenza H1N1 virus
Assay: microbe, parasite or virus in culture
Type: cell-based, influenza A virus
List of Selectivity Index (CC50/IC50) values.
measure: Selectivity Index (CC50/IC50)

- C=CCN1C(=O)/C(=C\c2cccn2-c2ccc([N+](=O)[O-])cc2)C(=O)NC1=S: 10
- Nc1c(C(=O)O)cc(O)c2c1C(=O)c1ccccc1C2=O: 129
- Oc1c(Br)cc(/C=N/Nc2nc3ccccc3s2)c(O)c1Br: 58
